test system: MRSA and MSSA; assay: Antibacterial activity of gallic acid, various gallates and multivalent phenol derivatives alone (agar plate dilution method, MIC); format: cell-based, Staphylococcus aureus; conditions: Staphylococcus aureus, MSSA #1010; read-out: MIC alone
Observed property: MIC

Your task in this section: give MIC for each listed record.
1. O=C(O)c1cc(O)c(O)c(O)c1 [Gallic acid, gallic acid, reference compound]
2. CCOC(=O)c1cc(O)c(O)c(O)c1 [Ethyl gallate, ethyl gallate]

Result ::
["62.5 µg/mL", "125 µg/mL"]

Query :: Record request: MIC value, item COC(=O)c1cc(O)c(O)c(O)c1 [Methyl gallate, methyl gallate]
Result :: 250 µg/mL

Origin of the recorded values: patent US20060235076A1
